Target: T1, CEACAM1 (Sino Biological) (human, UniProt P13688 35-428, limits assumed)
T1 construct: may be the same as CEACAM1-HIS; also called hCEACAM1; biotinylated soluble CEACAM1
T1 sequence: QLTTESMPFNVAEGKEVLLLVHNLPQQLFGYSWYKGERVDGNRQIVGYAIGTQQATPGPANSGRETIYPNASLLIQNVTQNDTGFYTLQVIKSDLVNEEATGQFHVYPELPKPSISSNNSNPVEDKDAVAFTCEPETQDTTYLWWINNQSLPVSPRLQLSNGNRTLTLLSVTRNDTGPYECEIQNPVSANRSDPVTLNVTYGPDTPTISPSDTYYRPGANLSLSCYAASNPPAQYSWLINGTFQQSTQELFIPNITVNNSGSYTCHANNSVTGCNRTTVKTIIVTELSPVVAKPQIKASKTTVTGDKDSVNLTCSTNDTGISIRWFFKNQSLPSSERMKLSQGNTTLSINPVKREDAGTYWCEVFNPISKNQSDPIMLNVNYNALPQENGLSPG
Experiment: SPR single-cycle
REPORTED PROPERTY: fold better than Parent (KD) (fold)
Give the value in fold but do not write fold after it.

He13/L19 (antibody, IgG4, V domains shown, IgG4 S241P, kappa) VH: EVQLLESGGGLVQPGGSLRLSCAASGFSFSDYYLYWVRQAPGKGLEWVATISVGGGQTSYADSVKGRFTISRDNSKNTLYLQMNSLRAEDTAMYYCTRGLYYGPSWLAYWGQGTLVTVSS VL: DIVMTQSPDSLAVSLGERATINCKSSQSLLNSANQKNYLAWYQQKPGQPPKLLIYFASTRESGVPDRFSGSGSGTDFTLTISSLQAEDVAVYYCQSHIYPNFTFGGGTKVEIK has a reported fold better than Parent (KD) of 1.23

Attention now shifts to the item below.
He13/L4 #1 (antibody, IgG4, V domains shown, IgG4 S241P, kappa) VH: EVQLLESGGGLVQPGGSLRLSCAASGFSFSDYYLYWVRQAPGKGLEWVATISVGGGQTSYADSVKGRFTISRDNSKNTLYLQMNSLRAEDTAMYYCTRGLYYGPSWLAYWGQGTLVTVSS VL: DIVMTQSPDSLAVSLGERATINCKSSQSLLNSANQKNYLAWYQQKPGQPPKLLIYFASTRESGVPDRFSGSGSGTDFTLTISSLQAEDVAVYYCQSHFPYYYTFGGGTKVEIK has a reported fold better than Parent (KD) of 1.38
